src = paper PMC3127977

# ASSAY COMMENT: Steady-state plasma pharmacokinetics (HPLC-MS/MS) in healthy men; oral roflumilast 500 μg once daily, inhaled formoterol 24 μg twice daily
# APPLIED CONDITIONS: male, human, plasma, oral, AUCτ, steady state, Regimen A Day 18 (roflumilast plus formoterol); geometric mean (68% range)
ATTRIBUTE MEASURED: AUC
Express your answer as a number followed by its unit.

Request: Entry O=C(Nc1c(Cl)cncc1Cl)c1ccc(OC(F)F)c(OCC2CC2)c1 [Roflumilast] : reported AUC = ?
Result: 36.9 ng·h/mL

###

# ASSAY COMMENT: Steady-state plasma pharmacokinetics (HPLC-MS/MS) in healthy men; oral roflumilast 500 μg once daily, inhaled formoterol 24 μg twice daily
# APPLIED CONDITIONS: male, human, plasma, oral, 500 μg, AUCτ, steady state, Regimen A Day 11 (roflumilast alone); geometric mean (68% range)
ATTRIBUTE MEASURED: AUC (ng·h/mL)
Numbers only, in ng·h/mL.

Request: What value of measured AUC is listed for O=C(Nc1c(Cl)cncc1Cl)c1ccc(OC(F)F)c(OCC2CC2)c1 [Roflumilast] ?
Result: 35.8
